Data provenance: patent US20220317138A1

- Target: beta-lactamase class D OXA-48 (Klebsiella pneumoniae, UniProt Q6XEC0)
- Sequence (Q6XEC0 23-265 limits assumed): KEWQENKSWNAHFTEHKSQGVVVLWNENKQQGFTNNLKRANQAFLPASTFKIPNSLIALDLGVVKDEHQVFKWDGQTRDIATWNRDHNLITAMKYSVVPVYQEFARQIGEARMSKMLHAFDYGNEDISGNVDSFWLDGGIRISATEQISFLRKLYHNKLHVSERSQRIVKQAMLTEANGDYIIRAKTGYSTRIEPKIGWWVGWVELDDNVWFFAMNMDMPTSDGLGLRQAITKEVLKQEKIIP
- Format: biochemical
- Reported Conditions: Meropenem 1.2 mg/L, second β-lactam 10.0 mg/L (8.4 times excess), replicate 5
# Accuracy Replicate 5 listing for each entry below
Hi! Could you send only the number? It should be in %, unit omitted.

CO/N=C(\C(=O)N[C@@H]1C(=O)N2C(C(=O)O)=C(COC(C)=O)CS[C@H]12)c1csc(N)n1; 115

State the recorded Accuracy Replicate 5 for this entry: `CO/N=C(\C(=O)N[C@@H]1C(=O)N2C(C(=O)O)=C(COC(N)=O)CS[C@H]12)c1ccco1`
111

If you can, please state the reported Accuracy Replicate 5 value of `CC(C)(O/N=C(\C(=O)N[C@@H]1C(=O)N2C(C(=O)[O-])=C(C[n+]3ccccc3)CS[C@H]12)c1csc(N)n1)C(=O)O` .
118

Which Accuracy Replicate 5 reading was recorded for the compound `CC1(C)S[C@@H]2[C@H](NC(=O)[C@H](C(=O)O)c3ccsc3)C(=O)N2[C@H]1C(=O)O` ?
105

Which Accuracy Replicate 5 value is on record for `C[C@@H](O)[C@H]1C(=O)N2C(C(=O)O)=C(S[C@@H]3CN[C@H](C(=O)N(C)C)C3)[C@H](C)[C@H]12` ?
97

Param item = `CC1(C)S[C@@H]2[C@H](NC(=O)[C@H](N)c3ccccc3)C(=O)N2[C@H]1C(=O)O` ; retrieve measured Accuracy Replicate 5.
108

Tell me the measured Accuracy Replicate 5 of `CO/N=C(\C(=O)N[C@@H]1C(=O)N2C(C(=O)O)=C(CSc3nc(=O)c(O)nn3C)CS[C@H]12)c1csc(N)n1` , please.
113

Endpoint output: Accuracy Replicate 5 of `Cn1nnnc1SCC1=C(C(=O)O)N2C(=O)[C@@H](NC(=O)[C@H](O)c3ccccc3)[C@H]2SC1` . Value?
112

Need Accuracy Replicate 5 of `Cc1onc(-c2ccccc2)c1C(=O)N[C@@H]1C(=O)N2[C@@H]1SC(C)(C)[C@@H]2C(=O)O` , thanks.
116

---

- Target: beta-lactamase class D OXA-48 (Klebsiella pneumoniae)
- Format: biochemical
- Reported Conditions: Meropenem 1.2 mg/L, second β-lactam 10.0 mg/L (8.4 times excess), replicate 4
Test Readout: Accuracy Replicate 4 (%)
Write the answer as a number in %, unit excluded.

Illustrative cases are given below, each with its answer.
C[C@@H](O)[C@H]1C(=O)N2C(C(=O)O)=C(S[C@@H]3CN[C@H](C(=O)N(C)C)C3)[C@H](C)[C@H]12 [Meropenem, meropenem]; 108
CC1(C)S[C@@H]2[C@H](NC(=O)[C@H](C(=O)O)c3ccsc3)C(=O)N2[C@H]1C(=O)O [Ticarpen ®]; 111

Form field: reported Accuracy Replicate 4 of CC1(C)S[C@@H]2[C@H](NC(=O)[C@H](N)c3ccccc3)C(=O)N2[C@H]1C(=O)O [Pentrexyl ®]
109

What value of Accuracy Replicate 4 has been reported for the following compound? CO/N=C(\C(=O)N[C@@H]1C(=O)N2C(C(=O)O)=C(COC(C)=O)CS[C@H]12)c1csc(N)n1 [Cefotaxim ® Sandoz]
110

# input compound: Cn1nnnc1SCC1=C(C(=O)O)N2C(=O)[C@@H](NC(=O)[C@H](O)c3ccccc3)[C@H]2SC1 [Cefamandole ®, Cefamandole] ; wanted: its Accuracy Replicate 4
123
